# System: T1, PSMA on LNCaP cells (human, UniProt Q04609 1-750)
# T1 construct: whole, on cells; also called LNCaP (PSMA+)
# T1 sequence (Q04609 whole entry): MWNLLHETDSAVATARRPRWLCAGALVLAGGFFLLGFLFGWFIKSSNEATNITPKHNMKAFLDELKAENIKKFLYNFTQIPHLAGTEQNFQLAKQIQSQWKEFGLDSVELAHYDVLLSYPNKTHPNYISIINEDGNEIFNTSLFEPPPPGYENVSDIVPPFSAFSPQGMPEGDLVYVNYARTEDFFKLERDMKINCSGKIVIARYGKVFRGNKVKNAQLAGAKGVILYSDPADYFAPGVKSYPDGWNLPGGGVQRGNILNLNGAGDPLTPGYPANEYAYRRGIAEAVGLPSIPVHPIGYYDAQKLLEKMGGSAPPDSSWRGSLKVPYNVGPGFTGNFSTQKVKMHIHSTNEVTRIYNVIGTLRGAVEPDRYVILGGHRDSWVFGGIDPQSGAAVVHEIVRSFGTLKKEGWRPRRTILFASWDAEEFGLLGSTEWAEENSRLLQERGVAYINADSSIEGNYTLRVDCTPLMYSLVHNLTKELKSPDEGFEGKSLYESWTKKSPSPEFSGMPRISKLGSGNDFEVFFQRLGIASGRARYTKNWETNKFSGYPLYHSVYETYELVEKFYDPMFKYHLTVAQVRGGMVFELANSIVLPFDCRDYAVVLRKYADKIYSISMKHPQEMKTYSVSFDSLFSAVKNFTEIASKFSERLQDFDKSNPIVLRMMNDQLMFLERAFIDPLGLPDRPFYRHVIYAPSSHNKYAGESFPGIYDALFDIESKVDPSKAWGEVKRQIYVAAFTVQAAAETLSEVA
# Assay name: flow cytometry on LNCaP cells
Metric: pEC50
API: returns pEC50 as number; meaning -log10 of concentration in mol/L.

Briefly, pEC50 measured for C34-TYR (bispecific antibody, Biparatopic tandem of two anti-PSMA VHH) EVQLVESGGGLVQPGGSLTLSCAASRFMISEYSMHWVRQAPGKGLEWVSTINPYGTTDYAESVKGRFTISRDNAKNTLYLQMNSLKPEDTAVYYCDGYGYRGQGTQVTVSSGGGGSGGGGSGGGGSQVQLQESGGGSVEAGGSLRLSCARSGWPYSTYSMNWFRQAPGKEREAVAGISSTMSGIIFAESKAGQFTISQDNAKNTVYLQMNNLKPEDTAIYYCAARRYFSLSSSSDDFDYWGQGTQVTVSSAAAYPYDVPDYGSLPETGGSPSTPPTPSPSTPP : 8.64

Reported pEC50 for C2-54TYR (VHH, C2 sdAb with tyrosine at position 54; also called C2-TYR) VHH: EVQLVESGGGLVQPGGSLTLSCAASRFMISEYSMHWVRQAPGKGLEWVSTINPYGTTDYAESVKGRFTISRDNAKNTLYLQMNSLKPEDTAVYYCDGYGYRGQGTQVTVSS was 8.17

Value of pEC50 reported for the binder C35-TYR (bispecific antibody, Tandem of two copies of the same VHH) QVQLQESGGGSVEAGGSLRLSCARSGWPYSTYSMNWFRQAPGKEREAVAGISSTMSGIIFAESKAGQFTISQDNAKNTVYLQMNNLKPEDTAIYYCAARRYFSLSSSSDDFDYWGQGTQVTVSSGGGGSGGGGSGGGGSQVQLQESGGGSVEAGGSLRLSCARSGWPYSTYSMNWFRQAPGKEREAVAGISSTMSGIIFAESKAGQFTISQDNAKNTVYLQMNNLKPEDTAIYYCAARRYFSLSSSSDDFDYWGQGTQVTVSSAAAYPYDVPDYGSLPETGGSPSTPPTPSPSTPP is 7.91
